Recorded values, source patent US20200385371A1.

- System: MV4-11 cells
- experiment summary: Cell proliferation assay (ATPlite)
- Assay type: cell-based
- condition summary: Homo sapiens, 120 h; MV4-11 cells, five days; read-out: GI MV411 EC50
recorded metric: EC50 (nM)
Entry rule: numbers only, all in nM.

Example cases with answers are listed next.
C[C@@H]1CN(c2cc(F)c(-c3cnc(N4CCO[C@@H](C)C4)nc3)c(F)c2NC(=O)c2c[nH]c(=O)cc2C(F)F)C[C@H](C)N1C [Example 125]    19.4
C[C@@H]1CN(c2ccc(-c3c(F)cc(N4CCN(C)[C@@H](C)C4)c(NC(=O)c4ccc(F)cc4C(F)(F)F)c3F)cn2)C[C@H](C)O1 [Example 176]    139

Query compound follows.
Checklist item: EC50 tested on MV4-11 cells, entry CC(C)OC(=O)N1CC=C(c2c(F)cc(N3CCN(C)[C@@H](C)C3)c(NC(=O)c3c[nH]c(=O)cc3C(F)F)c2F)C1 [Example 36] , value?
54.5

---

- experimental target: WDR5 (Homo sapiens)
- experiment summary: Surface Plasmon Resonance (SPR) assay
- Type: binding
- Parameters: Full length WDR5 with an N-terminal His tag and C-terminal AviTag; His tag (N); made in house; host or cells: E. coli
- condition summary: read-out: SPR Kd
recorded metric: Kd (nM)
Entry rule: numbers only, all in nM.

// lookup Kd for `C[C@H]1CN(c2ccc(-c3c(F)cc(N4CCN(C)[C@@H](C)C4)c(NC(=O)c4ccc(F)cc4C(F)F)c3F)cn2)CCO1`
1.59

Queued: `C[C@@H]1CN(c2ccc(-c3c(F)cc(N4CCN(C)[C@@H](C)C4)c(NC(=O)c4ccc(F)cc4C(F)(F)F)c3F)cn2)CCO1`
1.02

Queued: `C[C@@H]1CN(c2cc(F)c(-c3cnc(N4CCOCC4)nc3)c(F)c2NC(=O)c2ccc(F)cc2C(F)(F)F)C[C@H](C)N1C`
0.33

---

- experimental target: WDR5 (Homo sapiens, UniProt P61964)
Reported pIC50 values for a set of compounds
# pIC50: negative log10 of molar concentration; output just the value

Example cases with answers are listed next.
COc1cnc(N2CC=C(c3c(F)cc(N4CCN(C)[C@@H](C)C4)c(NC(=O)c4c[nH]c(=O)cc4C(F)F)c3F)CC2)nc1    7.65
C[C@H]1CN(c2cc(F)c(-c3cnc(N4C[C@H]5CC[C@@H](C4)O5)nc3)c(F)c2NC(=O)c2c[nH]c(=O)cc2C(F)(F)F)CCN1C    7.90
C[C@H]1CN(c2cc(F)c(C3=CCN(c4ccnc(C#N)n4)CC3)c(F)c2NC(=O)c2c[nH]c(=O)cc2C(F)F)CCN1C    7.85
C[C@H]1CN(c2cc(F)c(C3=CCN(c4ncc(C#N)s4)C3)c(F)c2NC(=O)c2c[nH]c(=O)cc2C(F)(F)F)CCN1C    7.92
C[C@@H]1CN(c2ncc(-c3c(F)cc(N4C[C@@H](C)N(C)[C@@H](C)C4)c(NC(=O)c4c[nH]c(=O)cc4C(F)F)c3F)cn2)C[C@H](C)O1    7.85

// lookup pIC50 for `C[C@H]1CN(c2cc(F)c(C3=CCN(c4ncc(F)cn4)CC3)c(F)c2NC(=O)c2c[nH]c(=O)cc2C(F)F)CCN1C`
7.90

Queued: `Cc1nc(C(=O)N2CC=C(c3c(F)cc(N4CCN(C)[C@@H](C)C4)c(NC(=O)c4c[nH]c(=O)cc4C(F)F)c3F)CC2)cs1`
7.86

Queued: `CC(C)OC(=O)N1CC=C(c2c(F)cc(N3CCN(C)[C@@H](C)C3)c(NC(=O)c3c[nH]c(=O)cc3C(F)F)c2F)CC1`
7.66

Queued: `C[C@H]1CN(c2cc(F)c(C3=CCCN(c4ccnc(C#N)n4)C3)c(F)c2NC(=O)c2c[nH]c(=O)cc2C(F)F)CCN1C`
7.83

Queued: `C[C@@H]1CN(c2cc(F)c(-c3ccc4c(c3)OCO4)c(F)c2NC(=O)c2c[nH]c(=O)cc2C(F)(F)F)C[C@H](C)N1C`
7.82

Queued: `C[C@H]1CN(c2ncc(-c3c(F)cc(N4CCN(C)[C@@H](C)C4)c(NC(=O)c4ccc(F)cc4C(F)F)c3F)cn2)C[C@H](C)O1`
7.79

---

- experimental target: WDR5 (Homo sapiens, UniProt P61964)
recorded metric: pIC50
# pIC50: negative log10 of molar concentration; output just the value

Example cases with answers are listed next.
C[C@@H]1CN(c2cc(F)c(C3=CCCN(C(=O)C(C)(C)C)C3)c(F)c2NC(=O)c2c[nH]c(=O)cc2C(F)(F)F)C[C@H](C)N1C    7.50
C[C@@H]1CN(c2cc(F)c(-c3cnc(N(C)C)nc3)c(F)c2NC(=O)c2c[nH]c(=O)cc2C(F)(F)F)C[C@H](C)N1C    7.78

Query compound follows.
// lookup pIC50 for `CC(C)OC(=O)N1CCC=C(c2c(F)cc(N3CCN(C)[C@@H](C)C3)c(NC(=O)c3c[nH]c(=O)cc3C(F)F)c2F)C1`
7.53

---

- experimental target: WDR5 (Homo sapiens)
recorded metric: pIC50
# pIC50: negative log10 of molar concentration; output just the value

C[C@H]1CN(c2cc(F)c(-c3cnc(N4CCNCC4)nc3)c(F)c2NC(=O)c2ccc(F)cc2C(F)(F)F)CCN1C    7.80

Checklist item: pIC50 tested on WDR5 (Homo sapiens), entry `C[C@@H]1CN(c2cc(F)c(C3=CCCN(C(=O)OC4(C)CCC4)C3)c(F)c2NC(=O)c2c[nH]c(=O)cc2C(F)F)C[C@H](C)N1C` , value?
7.64

Queued: `C[C@@H]1CN(c2cc(F)c(-c3cnc(N4CCO[C@@H](C)C4)nc3)c(F)c2NC(=O)c2c[nH]c(=O)cc2C(F)(F)F)C[C@H](C)N1C`
7.68

---

- experimental target: WDR5 (Homo sapiens, UniProt P61964)
- experiment summary: Surface Plasmon Resonance (SPR) assay
- Assay type: binding
- Set-up: Full length WDR5 with an N-terminal His tag and C-terminal AviTag; His tag (N); made in house; host or cells: E. coli
- condition summary: read-out: SPR Kd
recorded metric: pKd
# pKd: negative log10 of molar concentration; output just the value

Example cases with answers are listed next.
CC(C)[C@H]1CN(c2ncc(-c3c(F)cc(N4C[C@@H](C)N(C)[C@@H](C)C4)c(NC(=O)c4c[nH]c(=O)cc4C(F)(F)F)c3F)cn2)CCO1 [Example 103]    8.30
C[C@H]1CN(c2ncc(-c3c(F)cc(N4CCN(C)[C@@H](C)C4)c(NC(=O)c4c[nH]c(=O)cc4C(F)F)c3F)cn2)C[C@H](C)O1 [Example 119]    9.05
C[C@@H]1CN(c2ncc(-c3c(F)cc(N4C[C@@H](C)N(C)[C@@H](C)C4)c(NC(=O)c4c[nH]c(=O)cc4C(F)F)c3F)cn2)C[C@@H](C)O1 [Example 116]    8.95

// lookup pKd for C[C@@H]1CN(c2cc(F)c(C3=CCN(c4ncc(C#N)s4)CC3)c(F)c2NC(=O)c2c[nH]c(=O)cc2C(F)(F)F)C[C@H](C)N1C [Example 148]
8.68

Queued: CNC(=O)c1ccc(-c2c(F)cc(N3C[C@@H](C)N(C)[C@@H](C)C3)c(NC(=O)c3c[nH]c(=O)cc3C(F)(F)F)c2F)cc1F [Example 24]
8.52

Queued: CC(C)OC(=O)N1CC=C(c2c(F)cc(N3CCN(C)[C@@H](C)C3)c(NC(=O)c3c[nH]c(=O)cc3C(F)(F)F)c2F)C1 [Example 37]
8.65

---

- experimental target: WDR5 (Homo sapiens, UniProt P61964)
Where a name gives a salt, the structure may show the parent alone.
recorded metric: IC50

Example cases with answers are listed next.
C[C@@H]1CN(c2ncc(-c3c(F)cc(N4C[C@@H](C)N(C)[C@@H](C)C4)c(NC(=O)c4ccc(F)cc4C(F)(F)F)c3F)cn2)CCO1 [Example 18, formic acid]    11 nM
C[C@@H]1CN(c2cc(F)c(C3=CCN(C(=O)OC4(C)CCC4)C3)c(F)c2NC(=O)c2c[nH]c(=O)cc2C(F)(F)F)C[C@H](C)N1C [Example 141]    10.1 nM
C[C@@H]1CN(c2ccc(-c3c(F)cc(N4CCN(C)[C@@H](C)C4)c(NC(=O)c4ccc(F)cc4C(F)(F)F)c3F)cn2)CCO1 [Example 172]    18.9 nM
C[C@@H]1CN(c2ncc(-c3c(F)cc(N4CCN(C)[C@@H](C)C4)c(NC(=O)c4ccc(F)cc4C(F)(F)F)c3F)cn2)C[C@@H](C)O1 [Example 167, Formic Acid Salt]    11.5 nM
C[C@@H]1CN(c2cc(F)c(-c3ccc(N4CCOCC4)nc3)c(F)c2NC(=O)c2c[nH]c(=O)cc2C(F)(F)F)C[C@H](C)N1C [Example 4]    31.8 nM

Query compound follows.
Checklist item: IC50 tested on WDR5 (Homo sapiens, UniProt P61964), entry C[C@H]1CN(c2cc(F)c(-c3ccc(OC4CCOCC4)nc3)c(F)c2NC(=O)c2c[nH]c(=O)cc2C(F)(F)F)CCN1C [Example 186] , value?
26.9 nM
